test system: Mannheimia haemolytica MH 6357 (M7/2); assay: MIC, broth-microdilution (CLSI), strain MH 6357; assay type: cell-based; conditions: Mannheimia haemolytica M7/2, reference strain (cattle infection strain)
For each record, check the reported MIC MH 6357: if it is below 2 µM write true (1), else write false (0).

Look over these answered cases.
compound	label class
CNC(=O)C(C(=O)NO)N(C)C(=O)c1ccc(C#Cc2ccc(CNCc3nccs3)cc2)cc1 (stereo not shown)	false (0)
CNC(=O)C(C(=O)NO)N(C)C(=O)c1ccc(C#Cc2ccc(CNC3CCCC3)cc2)cc1 (stereo not shown)	false (0)
CNC(=O)C(NC(=O)c1ccc(C#Cc2ccc(CNCc3cccnc3)cc2)cc1)C(=O)NO (stereo not shown)	true (1)
CNC(=O)C(C(=O)NO)N(C)C(=O)c1ccc(C#Cc2ccc(CNCCOC)cc2)cc1 (stereo not shown)	false (0)
C=CCNCc1ccc(C#Cc2ccc(C(=O)NC(C(=O)NC)C(=O)NO)cc2)cc1 (stereo not shown)	true (1)
CNC(=O)C(NC(=O)c1ccc(C#Cc2ccc(CNCc3cccs3)cc2)cc1)C(=O)NO (stereo not shown)	true (1)
CNC(=O)C(C(=O)NO)N(C)C(=O)c1ccc(C#Cc2ccc(CN3CCCC3)cc2)cc1 (stereo not shown)	false (0)
CNC(=O)C(NC(=O)c1ccc(C#Cc2ccc(CN3CCCC3)cc2)cc1)C(=O)NO (stereo not shown)	false (0)
CCCNCc1ccc(C#Cc2ccc(C(=O)N(C)C(C(=O)NC)C(=O)NO)cc2)cc1 (stereo not shown)	false (0)
CNC(=O)C(C(=O)NO)N(C)C(=O)c1ccc(C#Cc2ccc(CN3CCOCC3)cc2)cc1 (stereo not shown)	true (1)

Incoming: Field: below-cutoff. Rule: recorded MIC MH 6357 strictly less than 2 µM. Subject: CCCNCc1ccc(C#Cc2ccc(C(=O)NC(C(=O)NC)C(=O)NO)cc2)cc1 (stereo not shown)
Outgoing: false (0)

====

system: Mannheimia haemolytica MH 13093 (XB0472-6014.1); assay: MIC, broth-microdilution (CLSI), strain MH 13093; assay type: cell-based; conditions: Mannheimia haemolytica XB0472-6014.1, BRD field isolate
Reported MIC MH 13093 is given for each of the following compounds.
Report as a plain number; the unit µM is understood.

Recorded results for 3 compounds are shown here.
compound	recorded value
CCCNCc1ccc(C#Cc2ccc(C(=O)N(C)C(C(=O)NC)C(=O)NO)cc2)cc1 (stereo not shown) [Compound 27]	12.5
CNC(=O)C(NC(=O)c1ccc(C#Cc2ccc(CNCc3ccc(C)cc3)cc2)cc1)C(=O)NO (stereo not shown) [Compound 16]	1.6
CNC(=O)C(NC(=O)c1ccc(C#Cc2ccc(CN3CCOCC3)cc2)cc1)C(=O)NO (stereo not shown) [Compound 4]	1.6

Now look at this one.
Incoming: Fill in: MIC MH 13093 of CNC(=O)C(NC(=O)c1ccc(C#Cc2ccc(CNCC3CCCO3)cc2)cc1)C(=O)NO (stereo not shown) [Compound 17] is ___
Outgoing: 12.5

====

tested on: Pasteurella multocida PM 6267 (P 2225 (L386)); assay: MIC, broth-microdilution (CLSI), strain PM 6267; type: cell-based; conditions: Pasteurella multocida P 2225 (L386), reference strain (mouse infection strain)
recorded metric: MIC PM 6267 (µM)
// return numeric value only (unit: µM, not printed)

Some solved entries appear below for comparison.
compound	recorded metric	readout unit	recorded value
CNC(=O)C(C(=O)NO)N(C)C(=O)c1ccc(C#Cc2ccc(CNCc3ccccc3)cc2)cc1 (centres unmarked)	MIC PM 6267	µM	0.4
C=CCNCc1ccc(C#Cc2ccc(C(=O)NC(C(=O)NC)C(=O)NO)cc2)cc1 (centres unmarked)	MIC PM 6267	µM	0.2
CNC(=O)C(C(=O)NO)N(C)C(=O)c1ccc(C#Cc2ccc(CNCc3nccs3)cc2)cc1 (centres unmarked)	MIC PM 6267	µM	0.8

Now consider the entry below.
Incoming: Quick check: MIC PM 6267 on Pasteurella multocida PM 6267 (P 2225 (L386)), item CNC(=O)C(C(=O)NO)N(C)C(=O)c1ccc(C#Cc2ccc(CNCc3ccc(OC)cc3)cc2)cc1 (centres unmarked) ?
Outgoing: 0.4
